# measured_on: Insulin-like growth factor 1 receptor (Homo sapiens)
# Sequence (P08069 31-736 limits assumed): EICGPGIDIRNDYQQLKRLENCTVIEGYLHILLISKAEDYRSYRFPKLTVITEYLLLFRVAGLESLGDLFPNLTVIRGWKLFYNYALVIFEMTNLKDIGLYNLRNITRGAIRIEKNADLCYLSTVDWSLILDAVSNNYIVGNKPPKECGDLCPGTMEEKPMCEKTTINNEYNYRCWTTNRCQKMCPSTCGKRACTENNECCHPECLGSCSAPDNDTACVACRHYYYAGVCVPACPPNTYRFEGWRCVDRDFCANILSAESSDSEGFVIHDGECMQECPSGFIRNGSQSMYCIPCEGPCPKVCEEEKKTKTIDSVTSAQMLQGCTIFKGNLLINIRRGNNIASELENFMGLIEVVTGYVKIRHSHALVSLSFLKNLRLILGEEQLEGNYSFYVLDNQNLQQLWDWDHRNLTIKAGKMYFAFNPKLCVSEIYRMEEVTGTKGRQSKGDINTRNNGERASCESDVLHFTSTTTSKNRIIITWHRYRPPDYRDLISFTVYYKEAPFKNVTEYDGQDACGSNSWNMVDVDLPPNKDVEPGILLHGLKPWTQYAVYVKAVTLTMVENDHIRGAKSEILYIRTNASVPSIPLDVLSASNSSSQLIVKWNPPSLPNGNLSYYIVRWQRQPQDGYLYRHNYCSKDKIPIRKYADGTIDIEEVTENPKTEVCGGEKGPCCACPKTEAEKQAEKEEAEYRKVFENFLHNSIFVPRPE
# Sequence (P08069 741-1367 limits assumed): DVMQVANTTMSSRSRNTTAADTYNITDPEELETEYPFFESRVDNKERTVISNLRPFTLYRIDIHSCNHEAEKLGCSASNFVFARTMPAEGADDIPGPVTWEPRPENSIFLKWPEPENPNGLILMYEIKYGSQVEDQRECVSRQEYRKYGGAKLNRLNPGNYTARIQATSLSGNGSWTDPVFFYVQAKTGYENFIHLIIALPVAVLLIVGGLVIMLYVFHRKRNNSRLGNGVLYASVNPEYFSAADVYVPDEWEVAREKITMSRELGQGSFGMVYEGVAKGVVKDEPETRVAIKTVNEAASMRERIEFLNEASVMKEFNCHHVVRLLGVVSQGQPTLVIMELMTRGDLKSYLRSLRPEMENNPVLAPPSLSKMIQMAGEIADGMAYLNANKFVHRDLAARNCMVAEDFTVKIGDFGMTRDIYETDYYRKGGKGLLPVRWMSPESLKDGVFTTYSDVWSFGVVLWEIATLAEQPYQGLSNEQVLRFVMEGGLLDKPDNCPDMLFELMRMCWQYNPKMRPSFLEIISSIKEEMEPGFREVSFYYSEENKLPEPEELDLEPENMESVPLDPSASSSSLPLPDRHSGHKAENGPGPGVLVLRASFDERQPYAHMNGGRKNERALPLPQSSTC
# assay: In Vitro Kinase Inhibition Assay
# measurement_context: pH 7.5; 22 °C
pIC50: −log10 of the molar value.
measurement_kind: pIC50

[A] COc1cc2c(Nc3ccc(Sc4ncc(C)n4C)c(Cl)c3)c(C#N)cnc2cc1NCCCN(C)C
[B] CCn1c(Sc2ccc(Nc3c(C#N)cnc4cc(NCCCN5CCOCC5)c(OC)cc34)cc2Cl)nc(C)c1C
[C] CCOC(=O)C1CCN(CCCOc2cc3ncc(C#N)c(Nc4ccc(Sc5nc(C)c(C)n5CC)c(Cl)c4)c3cc2OC)CC1
Q. List the molecules shown above again, sorted by falling pIC50 values. State the ranking by listing the labels in the requested order.
A. B, C, A

src = BindingDB's records for doi:10.1016/j.bmcl.2008.11.037
